B1: KLHL14 (parent)
chain: CAVLDDSIYLVGGYSWSMGAYKSS

- Variants of: B1
- Test protocol: protein stability index of a GFP-peptide fusion (GPS, HEK-293T) (PSI 1-6); higher = more stable;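 also: lentivirally expressed fusions sorted by FACS into six bins by GFP to DsRed ratio, PSI derived from sequencing read proportions per bin multiplied by bin number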
- Stated conditions: c terminus: a fixed tail appended

Variant identifier: A2Q
protein stability index: 1.93

Variant identifier: L10E
protein stability index: 1.33

Variant identifier: S23D
protein stability index: 1.96
